- system: OCT1 (Homo sapiens, UniProt O15245)
- Sequence (O15245 1-554): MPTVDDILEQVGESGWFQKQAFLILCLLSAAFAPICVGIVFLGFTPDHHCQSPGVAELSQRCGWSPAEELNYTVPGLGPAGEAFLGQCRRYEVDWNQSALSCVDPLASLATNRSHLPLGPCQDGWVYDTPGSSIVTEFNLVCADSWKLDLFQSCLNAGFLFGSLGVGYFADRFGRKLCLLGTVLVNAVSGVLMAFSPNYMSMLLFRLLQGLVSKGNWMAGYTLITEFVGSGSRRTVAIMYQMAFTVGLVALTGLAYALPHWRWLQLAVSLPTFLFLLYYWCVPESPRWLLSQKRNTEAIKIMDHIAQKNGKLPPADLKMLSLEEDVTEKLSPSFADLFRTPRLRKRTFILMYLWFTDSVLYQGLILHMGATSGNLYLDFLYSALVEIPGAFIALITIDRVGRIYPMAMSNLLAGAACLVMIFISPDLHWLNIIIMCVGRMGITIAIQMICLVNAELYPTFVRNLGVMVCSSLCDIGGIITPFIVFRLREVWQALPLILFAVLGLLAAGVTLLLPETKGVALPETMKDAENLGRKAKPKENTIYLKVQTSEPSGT
- assay: Inhibition of model substrate uptake in OCT1-overexpressing HEK293 cells
- Format: cell-based
- Parameters: expressed in transfected cells; host or cells: HEK293
- testContext: OCT1; 20 μM inhibitor, 2 μM sumatriptan, 5 min

| compound | resultUnits | Sumatriptan inhibition [%] |
| --- | --- | --- |
| NC[C@@H](O)c1ccc(O)c(O)c1 [(S)-Norepinephrine] | % | 6.6 |
| C#CCN[C@H]1CCc2ccccc21 [(S)-Rasagiline] | % | 50.6 |
| CC(C)(C)NC[C@H](O)c1ccc(O)c(CO)c1 [(R)-Salbutamol] | % | -18.8 |
| CNCC[C@H](Oc1ccc(C(F)(F)F)cc1)c1ccccc1 [(S)-Fluoxetine] | % | 82.3 |
| O=C(OC1C[N+]2(CCCOc3ccccc3)CCC1CC2)C(O)(c1cccs1)c1cccs1 [(S)-Aclidinium] | % | 93.8 |
| CC(C)(C)NC[C@@H](O)c1ccc(O)c(CO)c1 [(S)-Salbutamol] | % | -10.2 |
| CCN(CC)CC#CCOC(=O)[C@@](O)(c1ccccc1)C1CCCCC1 [(S)-Oxybutynine] | % | 83.5 |
| CCC(CO)NCCNC(CC)CO [(S,S)-Ethambutol] | % | 17.8 |
| CCC(CO)NCCNC(CC)CO [(R,S)-Ethambutol] | % | 10.2 |
| CC(C)NC[C@H](O)COc1cccc2ccccc12 [(S)-Propranolol] | % | 82.8 |
| N[C@H]1CONC1=O [(S)-Cycloserine] | % | 35.9 |
| NC[C@H](O)c1ccc(O)c(O)c1 [(R)-Norepinephrine] | % | -1.3 |
| CCN1CCC[C@H]1CNC(=O)c1cc(S(=O)(=O)CC)c(N)cc1OC [(S)-Amisulpride] | % | 15.2 |
| OC[C@@H](O)CN1CCN(c2ccccc2)CC1 [(S)-Dropropizine] | % | 30.4 |
| CN(C)CCO[C@@](C)(c1ccccc1)c1ccccn1 [(S)-Doxylamine] | % | 88.2 |

---

- system: OCT3 (Homo sapiens, UniProt O75751)
- Construct: expressed in transfected cells; host or cells: HEK293
- Sequence (O75751 whole entry): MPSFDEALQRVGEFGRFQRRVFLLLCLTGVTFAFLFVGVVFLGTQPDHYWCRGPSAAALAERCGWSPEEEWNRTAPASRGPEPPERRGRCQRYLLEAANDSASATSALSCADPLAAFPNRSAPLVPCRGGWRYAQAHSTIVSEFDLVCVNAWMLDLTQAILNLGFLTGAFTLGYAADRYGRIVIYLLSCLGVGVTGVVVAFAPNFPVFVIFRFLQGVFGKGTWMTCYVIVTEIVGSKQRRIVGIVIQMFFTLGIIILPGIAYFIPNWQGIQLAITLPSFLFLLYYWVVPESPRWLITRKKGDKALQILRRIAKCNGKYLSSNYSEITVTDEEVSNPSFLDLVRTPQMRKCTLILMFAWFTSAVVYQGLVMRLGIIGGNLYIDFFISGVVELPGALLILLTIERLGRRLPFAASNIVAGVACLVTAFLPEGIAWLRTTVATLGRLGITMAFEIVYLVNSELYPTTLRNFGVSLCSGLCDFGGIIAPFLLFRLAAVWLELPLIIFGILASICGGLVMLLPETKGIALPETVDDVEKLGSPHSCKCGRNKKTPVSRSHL
- assay: Inhibition of model substrate uptake in OCT3-overexpressing HEK293 cells
- Type: cell-based
- testContext: read-out: IC50
quantityKind: IC50 (nM)

| molecule | quantitativeResult |
| --- | --- |
| Cc1ccc(O)c([C@H](CCN(C(C)C)C(C)C)c2ccccc2)c1 [(R)-Tolterodine] | 170 |

Entry source: paper PMC10698726
